Hi there, I'd appreciate the recorded GI50 for every entry that follows.
system: MOLT-4 leukemia; experiment: NCI tumour cell line growth inhibition, 48 h

Worked set:
cpd_smiles=COC(=O)Nc1nc2ccc(C3(c4ccc(F)cc4)OCCO3)cc2[nH]1 assay_target="MOLT-4 leukemia" endpoint_result="0.573 µM"
cpd_smiles=C=CCCCCC/C=C\[C@@H](O)C#CC#C/C=C/CO assay_target="MOLT-4 leukemia" endpoint_result="18.3 µM"
cpd_smiles=COc1ccc(-c2[nH]c3ccc(OC)cc3c2/C=C(\C#N)S(=O)(=O)c2ccccc2)cc1 assay_target="MOLT-4 leukemia" endpoint_result="0.745 µM"

// each listed molecule needs a value for GI50
1. Cc1cc2ncnn2cc1Nc1ncc2c(n1)n(C1CCOCC1)c(=O)n2C
2. Cc1ccc(NC(=O)c2cccc(C(C)(C)C#N)c2)cc1Nc1ccc2ncn(C)c(=O)c2c1
3. NC(=O)c1cc(Cl)ccc1NC(=O)/C=C/c1ccccc1
4. COc1cc(OC)c(C(=O)/C=C/c2cccc(C(F)(F)F)c2)c(OC)c1
5. COc1ccccc1CNCCCN1C(=O)c2ccc3c4c(ccc(c24)C1=O)C(=O)N(CCCNCCNCCCN)C3=O

1: 6.09 µM; 2: 5.2 µM; 3: 3.44 µM; 4: 0.873 µM; 5: 1.73 µM

Origin of the recorded values: PubChem BioAssay (NCI)
